Quick reference for combination Emax among some compounds
test system: CaR-1 (Colorectal Carcinoma); assay: combination Emax (second highest fraction inhibited in the dose matrix, 72 h); higher = more inhibition; extreme values may be limits of the assay

In the examples that follow, each entry is paired with its recorded combination Emax.
>  <Compound>
CC1(C)CCC(CN2CCN(c3ccc(C(=O)NS(=O)(=O)c4ccc(NCC5CCOCC5)c([N+](=O)[O-])c4)c(Oc4cnc5[nH]ccc5c4)c3)CC2)=C(c2ccc(Cl)cc2)C1 [Venetoclax] + C[C@@H]1COCCN1C2=NC(=NC(=C2)C3(CC3)[S@](=N)(=O)C)C4=C5C=CNC5=NC=C4 [AZD6738] (first compound max 1 µM, 7x7, partner max 10 µM)

>  <combination Emax>
0.484

$$$$
>  <Compound>
Cn1cnc2c(F)c(Nc3ccc(Br)cc3Cl)c(C(=O)NOCCO)cc21 [Selumetinib] + C[C@@H]1COCCN1C2=NC(=NC(=C2)C3(CC3)[S@](=N)(=O)C)C4=C5C=CNC5=NC=C4 [AZD6738] (first compound max 10 µM, 7x7, partner max 10 µM)

>  <combination Emax>
0.395

$$$$
>  <Compound>
Cc1c2c(nn1C)CSCc1cc(n(C)n1)CSc1cc(c3ccccc3c1)OCCCc1c(C(=O)O)n(C)c3c-2c(Cl)ccc13 [AZD5991] + C[C@@H]1COCCN1C2=NC(=NC(=C2)C3(CC3)[S@](=N)(=O)C)C4=C5C=CNC5=NC=C4 [AZD6738] (first compound max 1 µM, 7x7, partner max 10 µM)

>  <combination Emax>
0.362

$$$$

Q: Look up combination Emax for this compound: Cc1cc2ncnn2cc1Nc1ncc2c(n1)n(C1CCOCC1)c(=O)n2C [AZD7648] + C=CCn1c(=O)c2cnc(Nc3ccc(N4CCN(C)CC4)cc3)nc2n1-c1cccc(C(C)(C)O)n1 [AZD1775] (first compound max 10 µM, partner max 1 µM)
A: 0.551

Q: Which measured combination Emax value corresponds to C=CCn1c(=O)c2cnc(Nc3ccc(N4CCN(C)CC4)cc3)nc2n1-c1cccc(C(C)(C)O)n1 [AZD1775] + Nc1ccn([C@@H]2O[C@H](CO)[C@@H](O)C2(F)F)c(=O)n1 [Gemcitabine] (first compound max 1 µM, partner max 0.3 µM) ?
A: 0.729

Q: Query (compound): CC(=O)c1c(C)c2cnc(Nc3ccc(N4CCNCC4)cn3)nc2n(C2CCCC2)c1=O [Palbociclib] + Cn1cnc2c(F)c(Nc3ccc(Br)cc3Cl)c(C(=O)NOCCO)cc21 [Selumetinib] (first compound max 10 µM, 7x7, partner max 10 µM) ; field requested: combination Emax
A: 0.307

Q: Entry under review: CC1(C)CCC(CN2CCN(c3ccc(C(=O)NS(=O)(=O)c4ccc(NCC5CCOCC5)c([N+](=O)[O-])c4)c(Oc4cnc5[nH]ccc5c4)c3)CC2)=C(c2ccc(Cl)cc2)C1 [Venetoclax] + COc1cc(Nc2ncc3c(n2)-c2ccc(Cl)cc2C(c2c(F)cccc2OC)=NC3)ccc1C(=O)O [Alisertib] (first compound max 1 µM, 7x7, partner max 10 µM) . Reported combination Emax?
A: 0.401
